- System: MDA MB231
- assay summary: in vitro antiproliferation assay, MDA MB231 (breast/ER negative)
- Assay type: cell-based
- run conditions: MDA-MB-231, seeding density 2K; read-out: MDA-MB-231(2K)
pIC50: −log10 of the molar value.
pIC50 overview

Examples with their reported pIC50 follow.
smiles=COc1ccc(Nc2nc(Nc3cccc(-c4ncco4)c3)ncc2F)cc1OC observed="≥ 4.70"
smiles=CN1CCN(c2ccc(Nc3ncc(F)c(N(C)C4CCC4)n3)cc2)CC1 observed="≥ 4.70"

Reported pIC50 of COC(=O)N1CCN(c2ccc(Nc3ncc(F)c(NC4CCC4)n3)cc2)CC1 : ≥ 4.70
